Values were extracted from paper PMC6009855.

Target: hsHexB (Homo sapiens, UniProt P07686)
Construct: His6; made in house; host or cells: Pichia pastoris GS115 (pPIC9 vector)
Sequence (P07686 122-556): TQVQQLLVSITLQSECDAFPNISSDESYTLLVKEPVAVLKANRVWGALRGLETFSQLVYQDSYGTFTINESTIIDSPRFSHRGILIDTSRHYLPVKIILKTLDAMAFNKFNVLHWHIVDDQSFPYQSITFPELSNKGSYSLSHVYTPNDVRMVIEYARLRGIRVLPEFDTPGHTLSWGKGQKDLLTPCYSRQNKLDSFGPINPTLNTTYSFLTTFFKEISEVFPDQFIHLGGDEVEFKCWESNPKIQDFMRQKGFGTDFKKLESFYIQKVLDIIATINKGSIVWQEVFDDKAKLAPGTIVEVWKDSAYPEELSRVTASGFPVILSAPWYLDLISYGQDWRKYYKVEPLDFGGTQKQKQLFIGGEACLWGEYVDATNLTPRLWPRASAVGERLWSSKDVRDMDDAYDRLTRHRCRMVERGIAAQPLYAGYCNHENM
Assay: Inhibitory potency assay, end-point, 4-MU-GlcNAc substrate, pH 4.0
Format: biochemical
Settings: each compound at 20 µM; Figure 3
Text: Gene encoding hsHexB, which was engineered to contain a His6-tagged fusion protein, was cloned into pPIC9 expression vector (Invitrogen, Carlsbad, CA, USA), and subsequently transformed into Pichia pastoris GS115 (Invitrogen, Carlsbad, CA, USA) by electroporation. […] Purity of the protein was further analyzed by SDS–PAGE. hOGA was overexpressed in Escherichia coli BL21(DE3) and purified as described previously. […]
Recorded endpoint: Inhibition potency against hsHexB (in words)

Before answering, review these 4 worked examples.
CC(=O)N[C@@H]1[C@@H](O)[C@H](O)[C@@H](CO)O[C@H]1SCCCCCNCCN1C(=O)c2cccc3cccc(c23)C1=O [compound 15g]	highest potencies
CC(=O)N[C@@H]1[C@@H](O)[C@H](O)[C@@H](CO)O[C@H]1SCCCCCCNCCCN1C(=O)c2cccc3cccc(c23)C1=O [compound 15k]	considerably decreased
CC(=O)N[C@@H]1[C@@H](O)[C@H](O)[C@@H](CO)O[C@H]1SCCCCCCNCCN1C(=O)c2cccc3cccc(c23)C1=O [compound 15j]	highest potencies
CC(=O)N[C@@H]1[C@@H](O)[C@H](O)[C@@H](CO)O[C@H]1SCCCCCCNCCCCN1C(=O)c2cccc3cccc(c23)C1=O [compound 15l]	considerably decreased

Now look at this one.
Documented Inhibition potency against hsHexB (in words) of CC(=O)N[C@@H]1[C@@H](O)[C@H](O)[C@@H](CO)O[C@H]1SCCCNCCN1C(=O)c2cccc3cccc(c23)C1=O [compound 15d] : highest potencies
